This section presents molecules with their documented cytotoxicity at 10 µM values.
test: Toxicity liver stage against HepG2, at 10uM; format: cell-based; parameters: test concentration 10 uM, cell line HepG2-A16-CD81EGFP; settings: human, HepG2-A16-CD81EGFP cells; read-out: INHIBITION
Readout label: cytotoxicity at 10 µM (%)

{"Molecule": "O=C(NC1CCC1)C1=NOC2(CCN(Cc3ccccc3)C2)C1 (configuration not stated)", "Unit label": "%", "Value": -97.6}
{"Molecule": "Cc1nc(N2CCCC2)nc2c1CCN(Cc1nccn1C)CC2", "Unit label": "%", "Value": -130}
{"Molecule": "COc1cccc(-c2cccc(-c3ccn(CC4COCCO4)n3)c2)n1 (configuration not stated)", "Unit label": "%", "Value": -3.81}
{"Molecule": "CC(=O)N1CCN(C(C)c2ccc(Br)cc2)CC1 (configuration not stated)", "Unit label": "%", "Value": -5.63}
{"Molecule": "COc1ccc(OCc2cc(C(=O)N3C[C@@H](C)O[C@@H](C)C3)n[nH]2)c(Cl)c1", "Unit label": "%", "Value": -4.28}
{"Molecule": "CC(C)C(C(=O)N1CCN(c2ccncc2)CC1)n1cncn1 (configuration not stated)", "Unit label": "%", "Value": -9.35}
{"Molecule": "c1cc(COC[C@]23COC[C@H]2CN(Cc2ccncc2)C3)ccn1", "Unit label": "%", "Value": -63.5}

###

This section presents molecules with their documented cytotoxicity at 10 µM values.
test: Toxicity liver stage against HepG2, at 10uM; type: cell-based; set-up: test concentration 10 uM, cell line HepG2-A16-CD81EGFP; settings: human, HepG2-A16-CD81EGFP cells; read-out: INHIBITION

{"Cpd smiles": "Cc1cc(N2CCN(c3ccc(=O)[nH]n3)CC2)nc(-c2ccncc2)n1", "cytotoxicity at 10 µM / %": -5.19}
{"Cpd smiles": "Cc1c(C2=NS(=O)(=O)N(C)C(C(=O)Nc3ccc(Br)cc3)=C2)cnn1C", "cytotoxicity at 10 µM / %": 11.7}
{"Cpd smiles": "N#Cc1cccnc1NCc1cccnc1N1CCCCC1", "cytotoxicity at 10 µM / %": -48.3}

###

test: Toxicity liver stage against HepG2, at 10uM; assay type: cell-based; set-up: test concentration 10 uM, cell line HepG2-A16-CD81EGFP; conditions: human, HepG2-A16-CD81EGFP cells; read-out: INHIBITION
This section presents compounds with their documented cytotoxicity at 10 µM values.
Readout label: cytotoxicity at 10 µM (%)

{"Compound": "CN(CC1(O)CCCN(c2ccccn2)C1)C(=O)CC1CCOCC1 (stereo not drawn)", "Unit label": "%", "Value": -5.44}
{"Compound": "COc1cccc(OCC2CCCN(C(=O)Cc3cccc(O)c3)C2)c1 (stereo not drawn)", "Unit label": "%", "Value": -18.9}
{"Compound": "Cc1ccccc1C1CCN(CCNC(=O)CS(C)(=O)=O)C1 (stereo not drawn)", "Unit label": "%", "Value": -49.5}
{"Compound": "NC(=O)CC1CCN(C(=O)NCc2cccc(-n3cccn3)c2)CC1", "Unit label": "%", "Value": -2.45}
{"Compound": "Cc1cccc(-c2ccc(C(=O)NCC3CCOC3)c(=O)[nH]2)c1 (stereo not drawn)", "Unit label": "%", "Value": -9.66}
{"Compound": "NC(=O)C1CCN(Cc2ccc(S(=O)(=O)N3CCCC3)o2)CC1", "Unit label": "%", "Value": 1.04}
{"Compound": "COc1ccc2c(c1)OCC(CNC1CCc3ncnn3C1)=C2 (stereo not drawn)", "Unit label": "%", "Value": 4.4}
{"Compound": "CC(NC(=O)NCCn1ccnc1)c1nncn1C (stereo not drawn)", "Unit label": "%", "Value": -8.92}

###

assay: Toxicity liver stage against HepG2, at 10uM; format: cell-based; design: test concentration 10 uM, cell line HepG2-A16-CD81EGFP; settings: human, HepG2-A16-CD81EGFP cells; read-out: INHIBITION

{"Compound": "Cc1ccoc1C(=O)N1C[C@@H]2COC[C@]2(CNS(C)(=O)=O)C1", "Unit label": "%", "cytotoxicity at 10 µM": -1.14}
{"Compound": "NCC(=O)N1CCC(c2ccnc(Nc3cc(C(F)(F)F)ccn3)n2)C1 (stereo not given)", "Unit label": "%", "cytotoxicity at 10 µM": 9.83}
{"Compound": "O=C(C1CCCC1)N1C[C@H]2CNC[C@H]2C1", "Unit label": "%", "cytotoxicity at 10 µM": 1.47}
{"Compound": "CN(Cc1cc(-c2cccnc2)no1)C(=O)C1CCCN1S(C)(=O)=O (stereo not given)", "Unit label": "%", "cytotoxicity at 10 µM": -2.54}
{"Compound": "N#Cc1ccc(C(=O)NCCCNc2ccc(C(F)(F)F)cn2)cc1", "Unit label": "%", "cytotoxicity at 10 µM": -4.53}

###

assay: Toxicity liver stage against HepG2, at 10uM; type: cell-based; set-up: test concentration 10 uM, cell line HepG2-A16-CD81EGFP; details: human, HepG2-A16-CD81EGFP cells; read-out: INHIBITION
Readout label: cytotoxicity at 10 µM

{"Compound": "COc1ccc2nnc(C(=O)NC3CCCC3)nc2c1", "Value": "6.17%"}
{"Compound": "O=C(CCc1nc2cccnc2[nH]1)Nc1cccnc1", "Value": "2.92%"}
{"Compound": "Cc1ccc(-c2nnc(CN3CCc4cnc(C)nc4C3)o2)cc1", "Value": "-6.95%"}
{"Compound": "CCn1nnc2c1C(COCCN(C)C)CN(S(C)(=O)=O)C2 (stereo not drawn)", "Value": "-2.69%"}
{"Compound": "CCSCc1csc(-c2ccc(S(C)(=O)=O)cc2)n1", "Value": "8.21%"}
{"Compound": "CC(Cn1cccn1)n1cnc2ccc(F)cc2c1=O (stereo not drawn)", "Value": "0.956%"}
{"Compound": "O=C(c1ccc(S(=O)(=O)NC2CCC2)cc1)N1CC[C@H]2CNC[C@H]21", "Value": "-13.5%"}
{"Compound": "Cc1cnn(C2CN(Cc3nc(-c4ccsc4)no3)C2)c1", "Value": "-3.88%"}
{"Compound": "Cn1cncc1CNC1CC2(CCN(CC3CC3)CC2)c2ccccc21 (stereo not drawn)", "Value": "0.565%"}
{"Compound": "CC(C)(C)n1cc(C(=O)N2CCCN(Cc3cccs3)CC2)cn1", "Value": "-5.95%"}
{"Compound": "CS(=O)(=O)Nc1nn(Cc2ccc(F)cc2)cc1Br", "Value": "5.88%"}
{"Compound": "Cc1ccc(S(=O)(=O)N2C[C@H]3C[C@H](NC(=O)c4cscn4)[C@H]3C2)cc1", "Value": "12%"}
{"Compound": "CC(=O)Nc1ccc(C(=O)N(C)Cc2ccc(F)cc2F)s1", "Value": "6.43%"}

###

This section presents molecules with their documented cytotoxicity at 10 µM values.
assay: Toxicity liver stage against HepG2, at 10uM; type: cell-based; set-up: test concentration 10 uM, cell line HepG2-A16-CD81EGFP; details: human, HepG2-A16-CD81EGFP cells; read-out: INHIBITION
Readout label: cytotoxicity at 10 µM (%)

{"Molecule": "O=C(CSc1ccncc1)NC1CC(=O)N(CCc2ccccc2)C1 (stereo not drawn)", "Value": 0.318}
{"Molecule": "COCc1cc(CC2(NC3CCN(C)CC3)COC2)no1", "Value": -4.12}
{"Molecule": "Cc1ccc(CNC(CN2CCN(C)CC2)c2ccccc2)cc1C (stereo not drawn)", "Value": -7.49}

###

experiment: Toxicity liver stage against HepG2, at 10uM; assay type: cell-based; set-up: test concentration 10 uM, cell line HepG2-A16-CD81EGFP; settings: human, HepG2-A16-CD81EGFP cells; read-out: INHIBITION
This section presents molecules with their documented cytotoxicity at 10 µM values.
Readout label: cytotoxicity at 10 µM (%)

{"Molecule": "Cc1ccccc1OC1CCN(C(=O)CNC(=O)N(C)C)CC1", "Value": 9.83}
{"Molecule": "Cc1ncc(C(=O)N2CCCC(C(=O)c3nccn3C)C2)c(O)n1 (stereo not given)", "Value": -2.28}
{"Molecule": "CN1CCCC1CNC(=O)CCCOCc1ccccc1 (stereo not given)", "Value": -5.59}
{"Molecule": "COc1cc(CNC(=O)Nc2nnc(C(C)C)s2)ccn1", "Value": -8.24}
{"Molecule": "CCCc1nc(CN2CCOC(CNc3cccnn3)C2)cs1 (stereo not given)", "Value": -6.71}

###

test: Toxicity liver stage against HepG2, at 10uM; assay type: cell-based; design: test concentration 10 uM, cell line HepG2-A16-CD81EGFP; details: human, HepG2-A16-CD81EGFP cells; read-out: INHIBITION

{"Cpd smiles": "COCCCC(=O)NS(=O)(=O)c1ccc2c(c1)OCCCO2", "Unit label": "%", "cytotoxicity at 10 µM": -2.77}
{"Cpd smiles": "CCC[C@H]1CN(c2nccc(OC)n2)C[C@@H]1NC(=O)C1CCOCC1", "Unit label": "%", "cytotoxicity at 10 µM": -142}
{"Cpd smiles": "Cn1nc(Br)c2c(NCCCS(N)(=O)=O)ncnc21", "Unit label": "%", "cytotoxicity at 10 µM": 16.4}
